Conditions: sealed, dark at 7° C.
readout-label: Time after yellow-brown discoloration of the powder

I'd like to know its Time after yellow-brown discoloration of the powder. The compound in question is CCC(=O)[O-].O=C([O-])c1ccccc1.[Ca+2] 12 months

I'd like to know its Time after yellow-brown discoloration of the powder. The compound in question is C/C=C/C=C/C(=O)[O-].CCC(=O)[O-].[Ca+2] [calcium propionate sorbate] 12 months/>12 months

I'd like to know its Time after yellow-brown discoloration of the powder. The compound in question is C/C=C/C=C/C(=O)[O-].CC(=O)[O-].[Ca+2] [calcium acetate sorbate] 12 months />12 months

I'd like to know its Time after yellow-brown discoloration of the powder. The compound in question is C/C=C/C=C/C(=O)[O-].O=C[O-].[Ca+2] >12 months />12 months
